Taken from patent US20240132622A1.

# kon annotations
# test.target: T1, recombinant human PAD4 (human, UniProt Q9UM07 1-663)
# T1 construct: also called rhPAD4; hPAD4
# T1 sequence (Q9UM07 whole entry): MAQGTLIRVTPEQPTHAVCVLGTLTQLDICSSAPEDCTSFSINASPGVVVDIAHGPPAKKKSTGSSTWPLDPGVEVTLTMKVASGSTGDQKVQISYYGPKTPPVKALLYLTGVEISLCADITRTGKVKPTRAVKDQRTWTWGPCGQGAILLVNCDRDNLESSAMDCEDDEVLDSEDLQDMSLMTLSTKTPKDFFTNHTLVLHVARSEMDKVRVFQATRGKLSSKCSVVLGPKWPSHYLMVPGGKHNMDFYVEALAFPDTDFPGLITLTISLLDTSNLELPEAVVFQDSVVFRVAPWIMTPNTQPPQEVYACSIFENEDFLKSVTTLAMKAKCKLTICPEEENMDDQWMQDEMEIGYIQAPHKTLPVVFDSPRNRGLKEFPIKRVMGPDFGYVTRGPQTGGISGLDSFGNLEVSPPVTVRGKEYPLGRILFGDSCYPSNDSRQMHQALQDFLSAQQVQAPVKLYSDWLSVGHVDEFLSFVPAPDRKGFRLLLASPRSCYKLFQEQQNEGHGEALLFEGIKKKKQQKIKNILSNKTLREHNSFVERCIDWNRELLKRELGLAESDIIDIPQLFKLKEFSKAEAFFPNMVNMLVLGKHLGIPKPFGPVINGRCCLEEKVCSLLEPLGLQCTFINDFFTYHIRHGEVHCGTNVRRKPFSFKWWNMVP
# assay.info: SPR 37 C, captured antibody, PAD4 analyte, 2 mM EDTA
# unit: M⁻¹ s⁻¹ | format: bare number

A selection of reference data follows.
{"binder": "hz13-6 (antibody, V domains shown, light constant region not tied to this antibody) VH: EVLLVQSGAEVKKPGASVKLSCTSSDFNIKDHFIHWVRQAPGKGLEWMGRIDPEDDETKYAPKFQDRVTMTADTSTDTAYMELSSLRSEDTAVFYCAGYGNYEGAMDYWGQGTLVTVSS VL: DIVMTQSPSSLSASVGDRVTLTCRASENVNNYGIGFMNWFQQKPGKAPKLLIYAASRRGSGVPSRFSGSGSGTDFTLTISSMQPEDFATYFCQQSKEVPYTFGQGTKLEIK", "kon, M⁻¹ s⁻¹": "1.7e+06"}
{"binder": "hz13-9 (antibody, V domains shown, light constant region not tied to this antibody) VH: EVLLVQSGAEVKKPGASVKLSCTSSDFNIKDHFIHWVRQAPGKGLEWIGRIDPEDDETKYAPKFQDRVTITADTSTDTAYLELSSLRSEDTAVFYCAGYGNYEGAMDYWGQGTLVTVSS VL: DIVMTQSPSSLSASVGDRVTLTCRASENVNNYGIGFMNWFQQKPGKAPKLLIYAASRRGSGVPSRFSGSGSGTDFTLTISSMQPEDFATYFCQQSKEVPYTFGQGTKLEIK", "kon, M⁻¹ s⁻¹": "2e+06"}
{"binder": "hz20-7 (antibody, IgG1, V domains shown, also called clone 20-based hz20-7 antibody) VH: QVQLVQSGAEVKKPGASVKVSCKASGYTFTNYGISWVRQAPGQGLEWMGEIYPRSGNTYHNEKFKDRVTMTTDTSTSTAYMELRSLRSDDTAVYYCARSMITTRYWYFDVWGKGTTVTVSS VL: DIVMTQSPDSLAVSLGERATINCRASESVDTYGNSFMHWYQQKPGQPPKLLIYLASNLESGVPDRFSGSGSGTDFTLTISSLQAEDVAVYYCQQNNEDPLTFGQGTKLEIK", "kon, M⁻¹ s⁻¹": 380000}
{"binder": "hz13-8 (antibody, V domains shown, light constant region not tied to this antibody) VH: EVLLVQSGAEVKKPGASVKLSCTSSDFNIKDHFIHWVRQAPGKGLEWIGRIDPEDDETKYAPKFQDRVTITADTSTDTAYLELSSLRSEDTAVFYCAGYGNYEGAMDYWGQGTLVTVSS VL: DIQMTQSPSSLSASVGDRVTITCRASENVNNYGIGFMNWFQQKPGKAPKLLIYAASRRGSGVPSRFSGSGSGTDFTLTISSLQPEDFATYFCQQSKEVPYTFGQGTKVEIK", "kon, M⁻¹ s⁻¹": "1.9e+06"}
{"binder": "hz13-1 (antibody, V domains shown, light constant region not tied to this antibody) VH: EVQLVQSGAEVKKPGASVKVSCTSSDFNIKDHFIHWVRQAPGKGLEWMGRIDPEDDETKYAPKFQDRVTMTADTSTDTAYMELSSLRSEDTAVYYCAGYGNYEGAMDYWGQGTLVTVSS VL: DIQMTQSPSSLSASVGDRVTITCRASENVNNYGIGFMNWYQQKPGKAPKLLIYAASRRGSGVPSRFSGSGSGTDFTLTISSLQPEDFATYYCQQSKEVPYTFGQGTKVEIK", "kon, M⁻¹ s⁻¹": "1.3e+06"}

The measured kon associated with hz20-9 (antibody, V domains shown, light constant region not tied to this antibody) VH: QVQLVQSGAEVKKPGASVKVSCKASGYTFTNYGISWVRQAPGQGLEWMGEIYPRSGNTYHNEKFKDRVTMTTDKSTSTAYMELRSLRSDDTAVYYCARSMITTRYWYFDVWGKGTTVTVSS VL: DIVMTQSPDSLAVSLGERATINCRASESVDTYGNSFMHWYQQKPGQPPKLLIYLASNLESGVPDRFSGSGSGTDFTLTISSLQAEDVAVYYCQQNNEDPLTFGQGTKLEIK reads 480000

The measured kon associated with hz20-4 (antibody, V domains shown, light constant region not tied to this antibody) VH: QVQLVQSGAEVKKPGASVKVSCKASGYTFTNYGISWVRQAPGQGLEWMGEIYPRSGNTYHNEKFKDRVTMTADTSTSTVYMELSSLRSEDTAVYYCARSMITTRYWYFDVWGKGTTVTVSS VL: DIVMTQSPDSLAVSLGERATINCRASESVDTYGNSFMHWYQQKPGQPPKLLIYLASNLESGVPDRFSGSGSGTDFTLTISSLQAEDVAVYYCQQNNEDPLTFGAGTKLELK reads 240000

The measured kon associated with hz13-4 (antibody, V domains shown, light constant region not tied to this antibody) VH: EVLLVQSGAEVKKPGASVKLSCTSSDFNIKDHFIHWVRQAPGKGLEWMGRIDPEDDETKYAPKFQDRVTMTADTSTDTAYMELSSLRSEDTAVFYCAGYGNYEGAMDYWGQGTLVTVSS VL: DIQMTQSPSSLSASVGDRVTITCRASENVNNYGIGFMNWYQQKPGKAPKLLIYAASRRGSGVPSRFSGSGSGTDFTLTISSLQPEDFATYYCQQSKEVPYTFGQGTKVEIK reads 1.4e+06

The measured kon associated with hz20-14 (antibody, V domains shown, light constant region not tied to this antibody) VH: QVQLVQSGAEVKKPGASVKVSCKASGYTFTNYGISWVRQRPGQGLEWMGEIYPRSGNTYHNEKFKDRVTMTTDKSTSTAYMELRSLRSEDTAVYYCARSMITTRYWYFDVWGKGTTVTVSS VL: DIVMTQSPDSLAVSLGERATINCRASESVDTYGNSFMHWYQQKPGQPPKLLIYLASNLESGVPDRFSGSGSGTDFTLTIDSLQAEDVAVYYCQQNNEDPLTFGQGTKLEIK reads 450000

The measured kon associated with hz20-6 (antibody, V domains shown, light constant region not tied to this antibody) VH: QVQLVQSGAEVKKPGASVKLSCKATGYTFTNYGISWVRQAPGQGLEWIGEIYPRSGNTYHNEKFKDRVTLTADKSSSTAYMEFRSLRSDDTAVYFCARSMITTRYWYFDVWGQGTLVTVSS VL: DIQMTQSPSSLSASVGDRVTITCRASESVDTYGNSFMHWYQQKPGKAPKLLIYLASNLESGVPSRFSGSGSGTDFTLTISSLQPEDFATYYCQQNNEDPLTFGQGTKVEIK reads 300000
